Ref: ChEMBL document CHEMBL5390211

Kd values for the molecules below.
- assay.target: Galectin-8 (Homo sapiens)
- Sequence (O00214 whole entry): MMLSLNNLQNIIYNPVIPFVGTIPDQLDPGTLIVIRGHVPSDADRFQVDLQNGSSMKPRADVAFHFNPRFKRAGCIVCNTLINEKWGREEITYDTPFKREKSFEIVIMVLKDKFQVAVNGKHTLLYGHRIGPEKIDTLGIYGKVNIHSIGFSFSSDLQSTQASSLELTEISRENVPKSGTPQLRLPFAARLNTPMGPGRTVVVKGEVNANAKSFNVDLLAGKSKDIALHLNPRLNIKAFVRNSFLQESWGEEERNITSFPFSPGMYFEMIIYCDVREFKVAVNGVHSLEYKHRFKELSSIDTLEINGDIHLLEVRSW
- experiment.notes: Binding affinity to C-terminal domain human Gal-8 expressed in Escherichia coli BL21 (DE3) cells by isothermal titration calorimetry analysis
// units = nM; emit number, no label

Previously resolved entries follow.
O=C(NS(=O)(=O)c1ccc2oc(=O)ccc2c1)c1cc2cc(Oc3ccc(Cl)c(Cl)c3)ccc2[nH]1 2010
O=C(NS(=O)(=O)c1ccc2ncsc2c1)c1cc2cc(Oc3ccc(Cl)c(Cl)c3)ccc2[nH]1 6040

Query: Kd; subject: `O=C(NS(=O)(=O)c1sccc1Cc1ccccc1)c1cc2cc(Oc3ccc(Cl)c(Cl)c3)ccc2[nH]1`
2060

----------
- assay.target: Galectin-3 (Homo sapiens)
- Sequence (P17931 whole entry): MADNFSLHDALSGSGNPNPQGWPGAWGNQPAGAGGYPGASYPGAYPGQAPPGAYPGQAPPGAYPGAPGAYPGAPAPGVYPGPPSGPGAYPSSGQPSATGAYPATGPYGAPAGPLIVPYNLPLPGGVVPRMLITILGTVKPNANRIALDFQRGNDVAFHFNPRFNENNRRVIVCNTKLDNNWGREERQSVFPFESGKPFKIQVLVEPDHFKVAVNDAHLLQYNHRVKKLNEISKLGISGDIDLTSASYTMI
- experiment.notes: Binding affinity to human Gal-3 expressed in Escherichia coli BL21 (DE3) cells by competitive fluorescence polarization assay
parameter.measured: pKd
Lab note: report pKd as minus log10 of the concentration in molar units, number only.

See these solved cases before continuing.
O=C(NS(=O)(=O)c1ccc2oc(=O)ccc2c1)c1cc2cc(Oc3ccc(Cl)c(Cl)c3)ccc2[nH]1 5.00
O=C(NS(=O)(=O)c1ccccc1)c1cc2cc(Oc3ccc(Cl)c(Cl)c3)ccc2[nH]1 4.43
O=C(NS(=O)(=O)c1cc(Cl)c(Cl)s1)c1cc2cc(Oc3ccc(Br)cc3F)ccc2[nH]1 4.57
O=C(NS(=O)(=O)c1ccc(Cl)cc1)c1cc2cc(Oc3ccc(Cl)c(Cl)c3)ccc2[nH]1 4.09
O=C(NS(=O)(=O)c1cc(Cl)c(Cl)s1)c1cc2cc(Oc3ccc(Cl)cn3)ccc2[nH]1 3.67
O=C(NS(=O)(=O)c1ccc2c(c1)OCC2)c1cc2cc(Oc3ccc(Cl)c(Cl)c3)ccc2[nH]1 4.70
O=C(NS(=O)(=O)c1ccccc1Cl)c1cc2cc(Oc3ccc(Cl)c(Cl)c3)ccc2[nH]1 4.60
O=C(NS(=O)(=O)c1ccc(Cl)cc1Cl)c1cc2ccc(Oc3ccc(F)cc3)cc2[nH]1 3.52
CC(C)c1ccc(Oc2ccc3cc(C(=O)NS(=O)(=O)c4ccc(Cl)cc4Cl)[nH]c3c2)cc1 3.11
O=C(NS(=O)(=O)c1ccc(OC(F)(F)F)cc1)c1cc2cc(Oc3ccc(Cl)c(Cl)c3)ccc2[nH]1 4.81

Which value of pKd has been reported for `CCOC(=O)c1ccc(S(=O)(=O)NC(=O)c2cc3cc(Oc4ccc(Cl)c(Cl)c4)ccc3n2C)cc1` in the records?
4.44

Quick one: `O=C(NS(=O)(=O)c1cc(Cl)c(Cl)s1)c1cc2cc(Oc3ccc(Br)c(Cl)c3)ccc2[nH]1`
4.63

What about this compound? `O=C(NS(=O)(=O)c1ccc(F)cc1S(=O)(=O)C(F)(F)F)c1cc2cc(Oc3ccc(Cl)c(Cl)c3)ccc2[nH]1`
4.49
